Exercise: for every item that follows, state its recorded koff.
TESTED ON: T1, human soluble urokinase plasminogen activator receptor (suPAR) (human, UniProt Q03405 23-303, limits assumed)
T1 construct: Target antigen of the scFv off-rate screen; also called hsuPAR; human suPAR
T1 sequence (Q03405 23-303 limits assumed): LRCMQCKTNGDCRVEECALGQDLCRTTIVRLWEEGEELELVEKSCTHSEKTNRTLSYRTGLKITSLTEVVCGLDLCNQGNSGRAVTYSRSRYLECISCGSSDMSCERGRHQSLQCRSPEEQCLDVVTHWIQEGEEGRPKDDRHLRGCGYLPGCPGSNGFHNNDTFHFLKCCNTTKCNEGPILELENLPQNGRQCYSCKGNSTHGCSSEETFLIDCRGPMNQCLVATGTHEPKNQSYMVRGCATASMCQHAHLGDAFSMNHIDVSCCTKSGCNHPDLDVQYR
ASSAY REMARKS: BLI (Octet) off-rate screen of scFv clones
Report only the number, with the unit s⁻¹ understood.

Data request: # return recorded koff for input suPAR_DB06_G01 (scFv, V domains shown) VH: QVQLVQSGAEVKKPGASVKVSCKASGDTFTGYYMHWVRQAPGQGLEWMGWIDHENGSTIYAQKFQGRVTMTRDTSTSTVYMELSSLRSEDTAVYYCARGYDVDWFVYWGQGTLVTVSS VL: DIQMTQSPSSLSASVGDRVTITCSARSSVSYMYWYQQKPGKAPKLLIYRTSNLASGVPSRFSGSGSGTDFTLTISSLQPEDFATYYCQQYHSYPPTFGGGTKVEIK
Data returned: 0.00148

Data request: Report koff, nothing else, for this binder: suPAR_DB06_F05 (scFv, V domains shown) VH: QVQLVQSGAEVKKPGASVKVSCKASGDSFTGYYIHWVRQAPGQGLEWMGWIDHENGNTIYDQKFQGRVTMTRDTSTSTVYMELSSLRSEDTAVYYCARGYDVDWFVYWGQGTLVTVSS VL: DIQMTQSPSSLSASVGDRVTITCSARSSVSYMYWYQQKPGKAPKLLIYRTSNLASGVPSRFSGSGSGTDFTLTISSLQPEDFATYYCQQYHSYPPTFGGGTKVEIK
Data returned: 0.00531

Data request: For the binder suPAR_DB06_G03 (scFv, V domains shown) VH: QVQLVQSGAEVKKPGASVKVSCKASGYTFSSYYMHWVRQAPGQGLEWMGWIDPEGGNTIYAQKFQGRVTMTRDTSTSTVYMELSSLRSEDTAVYYCARGYDVDWFVYWGQGTLVTVSS VL: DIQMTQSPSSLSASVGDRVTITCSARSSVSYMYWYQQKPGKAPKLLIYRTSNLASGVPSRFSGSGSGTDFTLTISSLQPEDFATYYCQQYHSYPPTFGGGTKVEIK , give its measured koff value.
Data returned: 0.00381
